Data origin: patent US20240246913A1

# measured on: NDM-1 (Klebsiella pneumoniae, UniProt C7C422)
# Sequence (C7C422 29-270, looked up, species assumed): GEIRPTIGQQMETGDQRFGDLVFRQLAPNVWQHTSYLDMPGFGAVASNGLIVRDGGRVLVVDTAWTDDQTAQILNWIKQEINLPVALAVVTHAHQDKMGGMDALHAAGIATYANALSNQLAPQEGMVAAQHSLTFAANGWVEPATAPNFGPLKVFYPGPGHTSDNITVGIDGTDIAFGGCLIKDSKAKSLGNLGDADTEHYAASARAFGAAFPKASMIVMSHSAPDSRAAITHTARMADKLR
# assay overview: MBL inhibition, FC-5 fluorescence assay, NDM-1
# Format: biochemical
# test context: FC-5 cephalosporin substrate, fluorescence; ranges of obtained pIC50; read-out: pIC50 NDM-1 (converted)
Reported IC50 values for a set of compounds

These solved cases illustrate the format of a correct answer.
compound | IC50
C[C@@H](c1cccc2c(-c3ccc4c(c3)CC(=O)N4)c(C(=O)O)[nH]c12)N1C[C@]2(C[C@@H](CN)C2)OC1=O | 0.1 to 1 nM
CC(c1cnc(Cl)s1)c1cccc2c(-c3ccc(CS(C)(=O)=O)c(F)c3)c(C(=O)O)[nH]c12 (stereo not shown) | 0.1 to 1 nM
C[C@@H](c1cccc2c(-c3c(F)cc(NS(C)(=O)=O)cc3F)c(C(=O)O)[nH]c12)N1C[C@]2(C[C@@H](CN)C2)OC1=O | 1 to 10 nM
CC(NS(=O)(=O)c1ccccc1)c1cccc2c(-c3cc(Cl)cc(Cl)c3)c(C(=O)O)[nH]c12 (stereo not shown) | > 10 nM
COc1cc(-c2c(C(=O)O)[nH]c3c([C@H](C)n4cc(CN5CC(N)C5)oc4=O)cccc23)ccn1 | < 0.1 nM
C[C@@H](c1cccc2c(-c3cnc(N)nc3)c(C(=O)O)[nH]c12)N1C[C@]2(C[C@@H](CN)C2)OC1=O | 0.1 to 1 nM

Let's switch to this compound now.
## Input // fetch NDM-1 (Klebsiella pneumoniae, UniProt C7C422) IC50 for CC(c1cccc2c(-c3ccc(CS(C)(=O)=O)c(F)c3)c(C(=O)O)[nH]c12)n1cc(CN2CC[C@@H](N)C2)oc1=O (stereo partly shown)
## Output 0.1 to 1 nM
